Would you kindly list growth inhibition for each of these compounds?
# test.description: NCI Yeast Anticancer Drug Screen. Data for the sgs1 mgt1 strain (AID 161);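 note: 0% = growth of cultures given vehicle only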
# study.conditions: S. cerevisiae sgs1 mgt1 strain, at 50.0 µM, active compounds read high
Compounds without any hit were thinned out: in the full panel of roughly 79,000, 15% have a hit.
Give bare numbers, in %.

Recorded results for 4 compounds are shown here.
> print(dat)
                                   compound  observed.result
1              CCCCCCCC(=O)/C=C/c1ccc(C)cc1             67.6
2                        CCCCCCCCCCCC(=O)NN               98
3  COc1nc2nc(SC(CC(=O)O)C(=O)c3ccc(Cl)cc3)[nH]c2c2ccccc12 (stereo not given)            -3.85
4        O=CC(O)CN1CCCC1 (stereo not given)             87.7

Please report growth inhibition for every entry that follows.
1. Cc1cc(C=Nc2ccccc2)c(O)c2ncccc12
2. CC(CCC(=O)O)(Nc1ccc([N+](=O)[O-])cc1[N+](=O)[O-])C(=O)O (stereo not given)
3. OCCN1c2ccccc2Sc2ccc(Cl)cc21
4. Cc1cccc(-c2nnc(-c3cccc(C)c3)o2)c1
5. CC1(C)COC(C)(C(=O)O)OC1

Key:
1: 94.9; 2: 99.1; 3: 90.8; 4: 63.6; 5: -5.8
